Quick list: melting point per entry.
assay-metric: melting point

| record-smiles | assay-metric | observed-measurement |
| --- | --- | --- |
| Cc1ccc(C(=O)Nc2cccc(C(=O)NC(=S)Nc3ccc(S(N)(=O)=O)cc3)c2)cc1 | melting point | 210 to 212 °C |
| CC(C)C(=O)Nc1ccc(C(=O)NC(=S)Nc2ccc(S(N)(=O)=O)cc2)cc1 | melting point | 248 to 250 °C |
| CC(C)C(=O)Nc1cccc(C(=O)NC(=S)Nc2ccc(C(=O)O)cc2)c1 | melting point | 240 to 242 °C |
| Cc1ccc(C(=O)Nc2ccc(C(=O)NC(=S)Nc3ccc(S(N)(=O)=O)cc3)cc2)cc1 | melting point | 228 to 230 °C |
| CCOC(=O)c1ccc(NC(=S)NC(=O)c2ccc(NC(=O)c3ccc(C)cc3)cc2)cc1 | melting point | 237 to 239 °C |
| CC(=O)Nc1cccc(C(=O)NC(=S)Nc2ccc(C(=O)O)cc2)c1 | melting point | 247 to 249 °C |
| Cc1ccc(C(=O)Nc2cccc(C(=O)NC(=S)Nc3ccc(C(=O)O)cc3)c2)cc1 | melting point | 254 to 256 °C |
| CC(C)C(=O)Nc1ccc(C(=O)NC(=S)Nc2ccc(C(=O)O)cc2)cc1 | melting point | 240 to 242 °C |

---

Quick list: Selectivity index I/IX per entry.
target: hCA IX (Homo sapiens, UniProt Q16790); assay: Stopped flow CO2 hydrase assay, hCA IX; conditions: inhibition of hCA IX over hCA I, calculated from Ki

| compound | target-or-system | Selectivity index I/IX |
| --- | --- | --- |
| Cc1ccc(C(=O)Nc2ccc(C(=O)NC(=S)Nc3ccc(S(N)(=O)=O)cc3)cc2)cc1 [Compound 7f] | hCA IX (Homo sapiens, UniProt Q16790) | 1.4 |
| CC(C)C(=O)Nc1ccc(C(=O)NC(=S)Nc2ccc(C(=O)O)cc2)cc1 [Compound 8e] | hCA IX (Homo sapiens, UniProt Q16790) | 293 |
| Cc1ccc(C(=O)Nc2cccc(C(=O)NC(=S)Nc3ccc(S(N)(=O)=O)cc3)c2)cc1 [Compound 7c] | hCA IX (Homo sapiens, UniProt Q16790) | 1.0 |
| CCOC(=O)c1ccc(NC(=S)NC(=O)c2ccc(NC(=O)C(C)C)cc2)cc1 [Compound 9e] | hCA IX (Homo sapiens, UniProt Q16790) | 293 |

---

target: hCA II (Homo sapiens)
pKi: −log10 of the molar value.
assay-metric: pKi

| record-smiles | assay-metric | censoring-sign | observed-measurement |
| --- | --- | --- | --- |
| CCOC(=O)c1ccc(NC(=S)NC(=O)c2ccc(NC(C)=O)cc2)cc1 | pKi | < | 4.00 |
| CC(=O)Nc1cccc(C(=O)NC(=S)Nc2ccc(C(=O)O)cc2)c1 | pKi | = | 5.27 |
| Cc1ccc(C(=O)Nc2cccc(C(=O)NC(=S)Nc3ccc(C(=O)O)cc3)c2)cc1 | pKi | = | 6.53 |
| CC(C)C(=O)Nc1cccc(C(=O)NC(=S)Nc2ccc(C(=O)O)cc2)c1 | pKi | < | 4.00 |

---

Quick list: melting point per entry.

| record-smiles | melting point |
| --- | --- |
| Cc1ccc(C(=O)Nc2ccc(C(=O)NC(=S)Nc3ccc(C(=O)O)cc3)cc2)cc1 | 254 to 256 °C |
| CC(=O)Nc1ccc(C(=O)NC(=S)Nc2ccc(S(N)(=O)=O)cc2)cc1 | 218 to 220 °C |
| CCOC(=O)c1ccc(NC(=S)NC(=O)c2cccc(NC(=O)c3ccc(C)cc3)c2)cc1 | 236 to 238 °C |
| CCOC(=O)c1ccc(NC(=S)NC(=O)c2ccc(NC(C)=O)cc2)cc1 | 237 to 239 °C |
| CCOC(=O)c1ccc(NC(=S)NC(=O)c2ccc(NC(=O)C(C)C)cc2)cc1 | 245 to 247 °C |

---

target: hCA XII (Homo sapiens)
Sequence (O43570 25-354): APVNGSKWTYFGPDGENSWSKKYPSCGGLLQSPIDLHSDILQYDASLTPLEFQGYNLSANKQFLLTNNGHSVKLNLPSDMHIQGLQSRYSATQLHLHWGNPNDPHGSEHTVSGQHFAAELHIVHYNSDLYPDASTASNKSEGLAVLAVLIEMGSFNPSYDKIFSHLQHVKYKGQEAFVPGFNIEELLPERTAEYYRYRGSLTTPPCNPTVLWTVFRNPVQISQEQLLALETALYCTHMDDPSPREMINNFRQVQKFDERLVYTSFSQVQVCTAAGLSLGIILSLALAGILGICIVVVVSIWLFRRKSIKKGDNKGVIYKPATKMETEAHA

| compound | censoring-sign | Ki [nM] |
| --- | --- | --- |
| CC(=O)Nc1ccc(C(=O)NC(=S)Nc2ccc(S(N)(=O)=O)cc2)cc1 [Compound 7d] | = | 97 |
| Cc1ccc(C(=O)Nc2ccc(C(=O)NC(=S)Nc3ccc(S(N)(=O)=O)cc3)cc2)cc1 [Compound 7f] | = | 106 |
| Cc1ccc(C(=O)Nc2cccc(C(=O)NC(=S)Nc3ccc(C(=O)O)cc3)c2)cc1 [Compound 8c] | = | 145 |
| CCOC(=O)c1ccc(NC(=S)NC(=O)c2ccc(NC(=O)C(C)C)cc2)cc1 [Compound 9e] | = | 202 |
| CCOC(=O)c1ccc(NC(=S)NC(=O)c2ccc(NC(C)=O)cc2)cc1 [Compound 9d] | > | 100000 |
| CCOC(=O)c1ccc(NC(=S)NC(=O)c2cccc(NC(=O)c3ccc(C)cc3)c2)cc1 [Compound 9c] | > | 100000 |
| CC(=O)Nc1ccc(C(=O)NC(=S)Nc2ccc(C(=O)O)cc2)cc1 [Compound 8d] | > | 100000 |
| CC(C)C(=O)Nc1ccc(C(=O)NC(=S)Nc2ccc(C(=O)O)cc2)cc1 [Compound 8e] | = | 102 |
| CCOC(=O)c1ccc(NC(=S)NC(=O)c2cccc(NC(=O)C(C)C)c2)cc1 [Compound 9b] | > | 100000 |

---

molecular target: hCA I (Homo sapiens)
Sequence (P00915 whole entry): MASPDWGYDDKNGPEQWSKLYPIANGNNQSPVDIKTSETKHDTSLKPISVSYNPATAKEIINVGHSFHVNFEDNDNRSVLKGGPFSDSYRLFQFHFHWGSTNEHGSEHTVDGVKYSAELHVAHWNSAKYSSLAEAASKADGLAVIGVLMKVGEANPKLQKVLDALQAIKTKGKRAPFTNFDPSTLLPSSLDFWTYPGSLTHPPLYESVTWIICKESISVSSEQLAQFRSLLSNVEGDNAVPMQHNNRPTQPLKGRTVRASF
pKi: −log10 of the molar value.
Quick list: pKi per entry.
assay-metric: pKi

| molecule | censoring-sign | observed-measurement |
| --- | --- | --- |
| CCOC(=O)c1ccc(NC(=S)NC(=O)c2cccc(NC(C)=O)c2)cc1 [Compound 9a] | = | 5.04 |
| Cc1ccc(C(=O)Nc2cccc(C(=O)NC(=S)Nc3ccc(S(N)(=O)=O)cc3)c2)cc1 [Compound 7c] | = | 7.48 |
| CCOC(=O)c1ccc(NC(=S)NC(=O)c2cccc(NC(=O)C(C)C)c2)cc1 [Compound 9b] | = | 5.06 |
| CC(C)C(=O)Nc1ccc(C(=O)NC(=S)Nc2ccc(S(N)(=O)=O)cc2)cc1 [Compound 7e] | = | 6.48 |
| CCOC(=O)c1ccc(NC(=S)NC(=O)c2ccc(NC(=O)c3ccc(C)cc3)cc2)cc1 [Compound 9f] | < | 4.00 |
| CC(C)C(=O)Nc1ccc(C(=O)NC(=S)Nc2ccc(C(=O)O)cc2)cc1 [Compound 8e] | < | 4.00 |
| CC(=O)Nc1ccc(C(=O)NC(=S)Nc2ccc(C(=O)O)cc2)cc1 [Compound 8d] | < | 4.00 |
| CCOC(=O)c1ccc(NC(=S)NC(=O)c2ccc(NC(C)=O)cc2)cc1 [Compound 9d] | < | 4.00 |
| CC(C)C(=O)Nc1cccc(C(=O)NC(=S)Nc2ccc(S(N)(=O)=O)cc2)c1 [Compound 7b] | = | 7.25 |
| Cc1ccc(C(=O)Nc2ccc(C(=O)NC(=S)Nc3ccc(C(=O)O)cc3)cc2)cc1 [Compound 8f] | = | 6.37 |

---

Quick list: melting point per entry.

| record-smiles | melting point |
| --- | --- |
| CC(=O)Nc1cccc(C(=O)NC(=S)Nc2ccc(S(N)(=O)=O)cc2)c1 | 256 to 258 °C |
| CC(C)C(=O)Nc1cccc(C(=O)NC(=S)Nc2ccc(S(N)(=O)=O)cc2)c1 | 240 to 242 °C |
| CCOC(=O)c1ccc(NC(=S)NC(=O)c2cccc(NC(C)=O)c2)cc1 | 242 to 244 °C |
| CC(=O)Nc1ccc(C(=O)NC(=S)Nc2ccc(C(=O)O)cc2)cc1 | 245 to 247 °C |
| CCOC(=O)c1ccc(NC(=S)NC(=O)c2cccc(NC(=O)C(C)C)c2)cc1 | 245 to 247 °C |

---

Reported pKi for target or system hCA II (Homo sapiens, UniProt P00918), by entry.
pKi: −log10 of the molar value.
assay-metric: pKi

| molecule | assay-metric | censoring-sign | observed-measurement |
| --- | --- | --- | --- |
| Cc1ccc(C(=O)Nc2ccc(C(=O)NC(=S)Nc3ccc(C(=O)O)cc3)cc2)cc1 [Compound 8f] | pKi | < | 4.00 |
| CCOC(=O)c1ccc(NC(=S)NC(=O)c2cccc(NC(=O)C(C)C)c2)cc1 [Compound 9b] | pKi | = | 7.24 |
| CCOC(=O)c1ccc(NC(=S)NC(=O)c2ccc(NC(=O)c3ccc(C)cc3)cc2)cc1 [Compound 9f] | pKi | < | 4.00 |
| CC(=O)Nc1cccc(C(=O)NC(=S)Nc2ccc(S(N)(=O)=O)cc2)c1 [Compound 7a] | pKi | = | 8.60 |
| CCOC(=O)c1ccc(NC(=S)NC(=O)c2ccc(NC(=O)C(C)C)cc2)cc1 [Compound 9e] | pKi | = | 7.14 |
| Cc1ccc(C(=O)Nc2cccc(C(=O)NC(=S)Nc3ccc(S(N)(=O)=O)cc3)c2)cc1 [Compound 7c] | pKi | = | 7.25 |
